- target_entity: CV S-protein construct 6 trimer TP31001F (SARS-CoV-2, UniProt P0DTC2 14-1208)
- run_description: SPR
Each entry below lists one item and its recorded Kd value.

| binder | Kd, nM |
| --- | --- |
| variant 6-47 (Fc fusion) VHH: EVQLVESGGGLVQPGGSLRLSCAASGRTFSMHAMGWFRQAPGKERELVASITYGGNINYADSVKGRFTISADNSKNTAYLQMNSLKPEDTAVYYCAKEGYYDSTGYRTYFQQWGQGTLVTVSS | 5.6 |
| variant 6-34 (Fc fusion) VHH: EVQLVESGGGLVQPGGSLRLSCAASGSAFRSNAMGWFRQAPGKEREFVAHISWSSKSTYYADSVKGRFTISADNSKNTAYLQMNSLKPEDTAVYYCATYCSSTSCFDYWGQGTLVTVSS | 0.7 |
| variant 6-84 (Fc fusion) VHH: EVQLVESGGGLVQPGGSLRLSCAASGFTPDDYAMGWFRQAPGKEREFVAAINSGGSYTYYADSVKGRFTISADNSKNTAYLQMNSLKPEDTAVYYCARDRGPWGQGTLVTVSS | 0.7 |
| variant 5-23 (Fc fusion) VHH: EVQLVESGGGLVQPGGSLRLSCAASGSIFSIDVMGWFRQAPGKEREFVAAISWSGESTLYADSVKGRFTISADNSKNTAYLQMNSLKPEDTAVYYCAAFDGYSGSDWGQGTLVTVSS | 4.2 |
| variant 6-60 (Fc fusion, VHH-Fc) VHH: EVQLVESGGGLVQPGGSLRLSCAASGDTYGSYWMGWFRQAPGKEREFVATISQSGAATAYADSVKGRFTISADNSKNTAYLQMNSLKPEDTAVYYCAGLLRYSGTYYDAFDVWGQGTLVTVSS | 0.1 |
| variant 5-27 (Fc fusion) VHH: EVQLVESGGGLVQPGGSLRLSCAASGRANSINWMGWFRQAPGKEREFVATITPGGNTNYADSVKGRFTISADNSKNTAYLQMNSLKPEDTAVYYCAAAAGSTWYGTLYEYDWGQGTLVTVSS | 110 |
| variant 6-52 (Fc fusion) VHH: EVQLVESGGGLVQPGGSLRLSCAASGDTYGSYWMGWFRQAPGKEREVVAAITSGGSTVYADSVKGRFTISADNSKNTAYLQMNSLKPEDTAVYYCARVDSRFDYWGQGTLVTVSS | 1.1 |
| variant 6-19 (Fc fusion) VHH: EVQLVESGGGLVQPGGSLRLSCAASGSILSIAVMGWFRQAPGKEREFVAAISPSAVTTYYADSVKGRFTISADNSKNTAYLQMNSLKPEDTAVYYCAIGYYDSSGYFDYWGQGTLVTVSS | 1 |

Hey, just so you know, these numbers are from patent US20210355194A1.
